system: HBV; test: In vitro anti-HBV activity in HepG2.2.15 cell line (intracellular HBV DNA by qPCR at 1 μM); assay type: cell-based; conditions: Hepatitis B virus, 144 h; HepG2.2.15 cells, 1 μM compound, 6 days, intracellular HBV DNA as percentage compared to vehicle control (0.5% DMSO)
Measured Attribute: activity at 1 µM

Return reported activity at 1 µM; argument: `Cc1ncnc(C)c1-c1ccc2c(Cl)c(C(=O)N3CC[C@H](C(=O)Nc4ccc(F)c(C#N)c4)[C@@H]3C)[nH]c2c1`
< 45%

Requested read-out: activity at 1 µM. Entry: `Cc1n[nH]c(C)c1-c1ccc(C(=O)N2CC[C@H](C(=O)Nc3ccc(F)c(Cl)c3)[C@@H]2C)[nH]1`
< 45%

If you can, please state the reported activity at 1 µM value of `Cc1cc(NC(=O)[C@H]2CCN(C(=O)c3[nH]c4ccccc4c3Cl)C2)ccc1F` .
< 45%

Request the reported activity at 1 µM associated with `Cc1noc(C)c1-c1ccc(C(=O)N2CC[C@H](C(=O)Nc3cc(F)c(F)c(F)c3)C2)[nH]1`
60 to 70%

Next:
Looking for the measured activity at 1 µM of `O=C(Nc1cc(F)c(F)c(F)c1)[C@H]1CCN(C(=O)c2ccc(-c3cn[nH]c(=O)c3)[nH]2)C1` , can you help?
80 to 90%

For the compound `Cc1cc(NC(=O)[C@H]2CCN(C(=O)c3ccc(-c4c(C)ncnc4C)[nH]3)[C@H]2C)ccc1F` , what activity at 1 µM is on record?
< 45%

I would be grateful if you could share the reported activity at 1 µM for `O=C(Nc1cc(F)c(F)c(F)c1)[C@H]1CCN(C(=O)c2cccc3cc[nH]c23)C1` .
> 90%

---

Each item that follows carries a reported half-life.
assay: Pharmacokinetic study in dogs; format: in vivo, male Beagle dogs; conditions: male, Beagle, dog, plasma; read-out: t1/2 (h) Dog (converted)
Respond with the bare value in h.

Completed entries (count: 2):
Quick one: half-life of `Cc1ncnc(C)c1-c1ccc(C(=O)N2CC[C@H](C(=O)Nc3ccc(F)c(Cl)c3)[C@@H]2C)[nH]1` ?
14.2

What value of measured half-life is listed for `Cc1cc(NC(=O)[C@H]2CCN(C(=O)c3ccc(-c4c(C)ncnc4C)[nH]3)[C@H]2C)ccc1F` ?
4.5

Next:
What measured half-life goes with `Cc1ncnc(C)c1-c1ccc(C(=O)N2CC[C@H](C(=O)Nc3cc(F)c(F)c(F)c3)C2)[nH]1` ?
6.2

---

Consider the following compounds and their measured F (%) Rat readings.
experiment: Pharmacokinetic study in rats; assay type: in vivo, male Sprague-Dawley rats; conditions: PO 0.3 to 2.0 mg/kg
State the answer as a number, implicitly in %.

These solved cases illustrate the format of a correct answer.
Tell me the measured F (%) Rat of `Cc1ncnc(C)c1-c1ccc(C(=O)N2CC[C@H](C(=O)Nc3ccc(F)c(Cl)c3)[C@@H]2C)[nH]1` , please.
66

Fill in: F (%) Rat of `Cc1ncnc(C)c1-c1ccc(C(=O)N2CC[C@H](C(=O)Nc3ccc(F)c(Cl)c3)C2)[nH]1` is ___
36

Can you look up the measured F (%) Rat of `Cc1cc(NC(=O)[C@H]2CCN(C(=O)c3ccc(-c4c(C)ncnc4C)[nH]3)[C@H]2C)ccc1F` for me?
44

Others:
What F (%) Rat value was documented for this compound, `C[C@H]1[C@@H](C(=O)Nc2cc(F)c(F)c(F)c2)CCN1C(=O)c1ccc(-c2ccnnc2)[nH]1` ?
82

---

system: HBV; assay: In vitro anti-HBV activity in HepG2.2.15 cell line (intracellular HBV DNA by qPCR at 1 μM); format: cell-based; conditions: Hepatitis B virus, 144 h; HepG2.2.15 cells, 1 μM compound, 6 days, intracellular HBV DNA as percentage compared to vehicle control (0.5% DMSO)
Measured activity at 1 µM by item

Some compounds with recorded activity at 1 µM:
Value lookup for activity at 1 µM; key = `Cc1ncnc(C)c1-c1ccc(C(=O)N2CC[C@H](C(=O)Nc3ccc(F)c(Cl)c3)[C@@H]2C)[nH]1`
< 45%

Which activity at 1 µM is reported for this compound? `Cc1cc(NC(=O)[C@H]2CCN(C(=O)c3ccc(-c4c(C)n[nH]c4C)[nH]3)[C@H]2C)ccc1F`
< 45%

Field request: activity at 1 µM | item: `Cc1cc(NC(=O)[C@H]2CCN(C(=O)c3ccc(-c4ccnnc4)[nH]3)C2)ccc1F`
< 45%

So what's the measured activity at 1 µM for this one? `O=C(Nc1cc(F)c(F)c(F)c1)[C@H]1CCN(C(=O)c2cc3ccncc3[nH]2)C1`
80 to 90%

Fill in the blank: the reported activity at 1 µM of `N#Cc1ccc(C(=O)N2CC[C@H](C(=O)Nc3cc(F)c(F)c(F)c3)C2)[nH]1` is ____.
70 to 80%

What value of activity at 1 µM has been reported for the following compound? `C[C@H]1[C@@H](C(=O)Nc2cc(F)c(F)c(F)c2)CCN1C(=O)c1[nH]c2ccccc2c1Cl`
< 45%

***
What value of activity at 1 µM has been reported for the following compound? `Cc1cc(NC(=O)[C@H]2CCN(C(=O)c3ccc(-c4c(C)cc[nH]c4=O)[nH]3)[C@H]2C)ccc1F`
< 45%

---

Test system: HBV
Experiment: In vitro anti-HBV activity in HepG2.2.15 cell line (intracellular HBV DNA by qPCR at 1 μM)
Format: cell-based
Conditions: Hepatitis B virus, 144 h; HepG2.2.15 cells, 1 μM compound, 6 days, intracellular HBV DNA as percentage compared to vehicle control (0.5% DMSO)
Excerpt: The stable transfected HBV cell line, called HepG2.2.15 cells was a valuable model with high reproducibility and commonly used for drug screening. […]
# activity at 1 µM per entry

Consider the worked cases shown below.
// activity at 1 µM lookup, key: Cc1nn(CC(=O)N2CC(O)C2)c(C)c1-c1ccc(C(=O)N2CC[C@H](C(=O)Nc3cc(F)c(F)c(F)c3)C2)[nH]1 [Example 112]
60 to 70%

Endpoint output: activity at 1 µM of O=C(Nc1cc(F)c(F)c(F)c1)[C@H]1CCN(C(=O)c2c[nH]c3ccccc23)C1 [Example 26] . Value?
80 to 90%

Reported activity at 1 µM, compound Cc1cc[nH]c(=O)c1-c1ccc(C(=O)N2CC[C@H](C(=O)Nc3cc(F)c(F)c(F)c3)C2)[nH]1 [Example 118] : ____
60 to 70%

What does the record list as activity at 1 µM for Cc1cnnc(C)c1-c1ccc(C(=O)N2CC[C@H](C(=O)Nc3ccc(F)c(F)c3)C2)[nH]1 [Example 115] ?
< 45%

Which activity at 1 µM reading was recorded for the compound O=C(Nc1ccc(F)c(Cl)c1)[C@H]1CCN(C(=O)c2[nH]c3ccccc3c2Cl)C1 [Example 41] ?
< 45%

More entries:
What does the record list as activity at 1 µM for Cc1n[nH]c(C)c1-c1ccc2cc(C(=O)N3CC[C@H](C(=O)Nc4cc(F)c(F)c(F)c4)C3)[nH]c2c1 [Example 134] ?
< 45%

Given O=C(NCc1cnc(Cl)s1)[C@H]1CCN(C(=O)c2[nH]c3ccccc3c2Cl)C1 [Example 71] , state its recorded activity at 1 µM.
70 to 80%

For Cc1ncnc(C)c1-c1ccc2c(Cl)c(C(=O)N3CC[C@H](C(=O)Nc4cc(F)c(F)c(F)c4)C3)[nH]c2c1 [Example 133] , what is its reported activity at 1 µM?
45 to 60%

Bench note: what activity at 1 µM did Cc1ncccc1Cc1ccc(C(=O)N2CC[C@H](C(=O)Nc3cc(F)c(F)c(F)c3)C2)[nH]1 [Example 145] show?
70 to 80%

What value of activity at 1 µM has been reported for the following compound? Cc1ncnc(C)c1-c1ccc(C(=O)N2CC[C@H](C(=O)Nc3cc(F)c(F)c(F)c3)[C@@H]2C)[nH]1 [Example 111]
< 45%

Which activity at 1 µM is reported for this compound? Cc1ccc(C(=O)N2CC[C@H](C(=O)Nc3ccc(F)c(Cl)c3)C2)[nH]1 [Example 33]
80 to 90%

Recorded activity at 1 µM of Cc1ncnc(C)c1-c1ccc(C(=O)N2CC[C@H](C(=O)Nc3ccc(F)c(C4CC4)c3)[C@@H]2C)[nH]1 [Example 170] , please.
< 45%

Which measured activity at 1 µM value corresponds to CC(=O)c1c[nH]c(C(=O)N2CC[C@H](C(=O)Nc3cc(F)c(F)c(F)c3)C2)c1 [Example 38] ?
> 90%

I would be grateful if you could share the reported activity at 1 µM for O=C(Nc1cc(F)c(F)c(F)c1)[C@H]1CCN(C(=O)c2cc3cc(F)c(F)cc3[nH]2)C1 [Example 49] .
> 90%

Recorded activity at 1 µM of O=C(Nc1cc(F)c(F)c(F)c1)[C@H]1CCN(C(=O)c2ccc(CO)[nH]2)C1 [Example 56] , please.
> 90%
